From: patent US20250268844A1

tested on: SKOV3 ovarian carcinoma cells; experiment: MTT conversion assay, SKOV3; assay type: cell-based, human; conditions: Homo sapiens, SK-OV-3, 48 hrs treatment
// IC50 lookup, one value per entry
measured_endpoint: IC50

C[C@@]1(O)C=CC(=O)[C@H]1c1ccc(F)c2ccccc12 (stereo in doubt) [Enone-2] :: 300 nM
C[C@@]1(O)C=CC(=O)C1c1ccc2ccccc2c1 (stereo in doubt) [Enone-1] :: 800 nM

* * *

system: MDA-MB-231 breast carcinoma cells; assay: MTT conversion assay, MDA-MB-231; assay type: cell-based, human; settings: Homo sapiens, 48 hrs treatment
measured_endpoint: IC50 (µM)

C[C@@]1(O)C=CC(=O)[C@H]1c1ccc(F)c2ccccc12 (stereo in doubt) :: 2.5

* * *

system: AGE60 ovarian carcinoma cells; assay: MTT conversion assay, AGE60; type: cell-based, human; conditions: 48 hrs treatment
pIC50: −log10 of the molar value.
measured_endpoint: pIC50

N.N.[Cl][Pt][Cl] [cis-platin, reference compound] :: 5.30

* * *

test system: HepG2 liver cells; assay: MTT conversion assay, HepG2; format: cell-based, human; settings: 48 hrs treatment
measured_endpoint: IC50 (µM)

N.N.[Cl][Pt][Cl] [cis-platin, reference compound] :: 9

* * *

tested on: RKO colorectal carcinoma cells; experiment: MTT conversion assay, RKO; format: cell-based, human; conditions: colon, 48 hrs treatment
measured_endpoint: IC50 (µM)

N.N.[Cl][Pt][Cl] [cis-platin, reference compound] :: 19

* * *

test system: A549 lung cells; assay: MTT conversion assay, A549; assay type: cell-based, human; conditions: 48 hrs treatment
pIC50: −log10 of the molar value.
measured_endpoint: pIC50

N.N.[Cl][Pt][Cl] [cis-platin, reference compound] :: 5.12

* * *

compounds and their reported IC50
tested on: A549 lung cells; experiment: MTT conversion assay, A549; type: cell-based, human; conditions: Homo sapiens, 48 hrs treatment
measured_endpoint: IC50

C[C@@]1(O)C=CC(=O)[C@H]1c1ccc(F)c2ccccc12 (stereo in doubt) :: 1.5 µM
C[C@@]1(O)C=CC(=O)C1c1ccc2ccccc2c1 (stereo in doubt) :: 1.7 µM

* * *

Items are presented alongside their recorded pIC50.
test system: A2780 ovarian cancer cells; experiment: PrestoBlue cell viability assay; format: cell-based, human; conditions: Homo sapiens, 72 hrs treatment, n=3 experiments
pIC50: −log10 of the molar value.
measured_endpoint: pIC50

C[C@@]1(O)C=CC(=O)[C@H]1c1ccc(F)c2ccccc12 (stereo in doubt) [Enone-2] :: 6.92
C[C@@]1(O)C=CC(=O)C1c1ccc2ccccc2c1 (stereo in doubt) [Enone-1] :: 6.70
